Tested on: EKVX
Test: relative viability (nuclei count vs DMSO), 5 days (fraction); higher = more cells survive
Settings: first compound 1 µM
Metric: relative viability
Numbers only.

[[record]]
compound = "O=c1cc(N2CCOCC2)oc2c(-c3cccc4c3sc3ccccc34)cccc12 + O=C(CCCCCCC(=O)Nc1ccccc1)NO [Vorinostat] (partner 1 µM)"
system_name = "EKVX"
numeric_result = 0.736

[[record]]
compound = "O=c1cc(N2CCOCC2)oc2c(-c3cccc4c3sc3ccccc34)cccc12 + Cc1nc(NC(=O)N2CCC[C@H]2C(N)=O)sc1-c1ccnc(C(C)(C)C(F)(F)F)c1 [Alpelisib] (partner 2 µM)"
system_name = "EKVX"
numeric_result = 0.824

[[record]]
compound = "CCN(CC)CCCCNc1ncc2cc(-c3cc(OC)cc(OC)c3)c(NC(=O)NC(C)(C)C)nc2n1 + CC(=O)Nc1cccc(-n2c(=O)n(C3CC3)c(=O)c3c(Nc4ccc(I)cc4F)n(C)c(=O)c(C)c32)c1 [Trametinib] (partner 0.02 µM)"
system_name = "EKVX"
numeric_result = 0.311

[[record]]
compound = "CCN(CC)CCCCNc1ncc2cc(-c3cc(OC)cc(OC)c3)c(NC(=O)NC(C)(C)C)nc2n1 + Cc1nc(NC(=O)N2CCC[C@H]2C(N)=O)sc1-c1ccnc(C(C)(C)C(F)(F)F)c1 [Alpelisib] (partner 2 µM)"
system_name = "EKVX"
numeric_result = 0.893

[[record]]
compound = "O=c1cc(N2CCOCC2)oc2c(-c3cccc4c3sc3ccccc34)cccc12 + C[C@]1(O)C[C@@H](c2nc(-c3ccc4ccc(-c5ccccc5)nc4c3)c3c(N)nccn32)C1 [Linsitinib] (partner 1 µM)"
system_name = "EKVX"
numeric_result = 1.01


// each compound listed below needs its relative viability
1. CCN(CC)CCCCNc1ncc2cc(-c3cc(OC)cc(OC)c3)c(NC(=O)NC(C)(C)C)nc2n1 + CC1(C)CCC(c2ccc(Cl)cc2)=C(CN2CCN(c3ccc(C(=O)NS(=O)(=O)c4ccc(N[C@H](CCN5CCOCC5)CSc5ccccc5)c(S(=O)(=O)C(F)(F)F)c4)cc3)CC2)C1 [Navitoclax] (partner 0.5 µM)
2. O=c1cc(N2CCOCC2)oc2c(-c3cccc4c3sc3ccccc34)cccc12 + Nc1nc2[nH]cc(CCc3ccc(C(=O)N[C@@H](CCC(=O)O)C(=O)O)cc3)c2c(=O)[nH]1 [Pemetrexed] (partner 0.2 µM)
3. CCN(CC)CCCCNc1ncc2cc(-c3cc(OC)cc(OC)c3)c(NC(=O)NC(C)(C)C)nc2n1 + CS(=O)(=O)CCNCc1ccc(-c2ccc3ncnc(Nc4ccc(OCc5cccc(F)c5)c(Cl)c4)c3c2)o1 [Lapatinib] (partner 2 µM)
4. CCN(CC)CCCCNc1ncc2cc(-c3cc(OC)cc(OC)c3)c(NC(=O)NC(C)(C)C)nc2n1 + NC(=O)Nc1cc(-c2cccc(F)c2)sc1C(=O)N[C@H]1CCCNC1 [AZD7762] (partner 0.2 µM)

Result:
1. 0.968
2. 0.362
3. 0.207
4. 0.709

* * *

Test system: NCI-H2228
Test: relative viability (nuclei count vs DMSO), 5 days (fraction); higher = more cells survive
Conditions: first compound 2 µM
Metric: relative viability
One number for each entry.

// each molecule listed below needs its relative viability
1. COCC1(CO)C(=O)C2CCN1CC2 (centres undefined) [PRIMA-1MET] + COc1cc2c(Oc3ccc(NC(=O)C4(C(=O)Nc5ccc(F)cc5)CC4)cc3F)ccnc2cc1OCCCN1CCOCC1 [Foretinib] (partner 0.25 µM)
2. COCC1(CO)C(=O)C2CCN1CC2 (centres undefined) [PRIMA-1MET] + Cc1cc(Nc2cc(N3CCN(C)CC3)nc(Sc3ccc(NC(=O)C4CC4)cc3)n2)n[nH]1 [Tozasertib] (partner 0.1 µM)
3. COCC1(CO)C(=O)C2CCN1CC2 (centres undefined) [PRIMA-1MET] + CC(=O)c1c(C)c2cnc(Nc3ccc(N4CCNCC4)cn3)nc2n(C2CCCC2)c1=O [Palbociclib] (partner 0.5 µM)
4. COCC1(CO)C(=O)C2CCN1CC2 (centres undefined) [PRIMA-1MET] + CS(=O)(=O)CCNCc1ccc(-c2ccc3ncnc(Nc4ccc(OCc5cccc(F)c5)c(Cl)c4)c3c2)o1 [Lapatinib] (partner 2 µM)

Result:
1. 0.87
2. 0.322
3. 0.742
4. 1.59
